The measured values listed here are drawn from the supplement of paper PMC4466140.

Listed binders paired with reported SPOT peptide array binding signal intensity
System Tested: CaSla1-D1-D2
Test Description: SPOT peptide array binding signal intensity (averaged, normalized) (arbitrary units (background-subtracted, floor 0; scale differs between SH3 domains)); higher = stronger binding of the SH3 domain to the peptide
Attribute Measured: SPOT peptide array binding signal intensity

>  <Binder>
NENKKLPPAPTVFGL

>  <Result>
≤ 0

$$$$
>  <Binder>
HVRRSILALPLGVLL

>  <Result>
≤ 0

$$$$
>  <Binder>
DKKTKPTPPPKPSHL

>  <Result>
≤ 0

$$$$
>  <Binder>
KLSRGRYGLPLSSRP

>  <Result>
≤ 0

$$$$
